- System Under Test: T1, TL1A in human blood (human, UniProt O95150 72-251, limits assumed)
- T1 sequence (looked up): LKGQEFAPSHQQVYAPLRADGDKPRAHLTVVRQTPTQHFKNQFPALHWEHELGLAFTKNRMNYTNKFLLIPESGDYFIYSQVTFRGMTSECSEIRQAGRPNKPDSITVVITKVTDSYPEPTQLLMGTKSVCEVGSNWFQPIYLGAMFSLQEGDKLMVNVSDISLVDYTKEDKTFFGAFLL
- Assay Overview: cell-based or functional assay
Cut-off 70% on % Inhibition at 10 nM Ig; inhibition of interferon gamma release in human blood, inclusive. At or above means yes; below means no.

Binder: A217 (antibody, V domains shown) VH: QVQLVQSGAEVKKPGASVKVSCKASGFDIQDTYMHWVKQRPGQGLEWMGRIDPASGHTKYDPKFQVRVTITRDTSTSTVYMELSSLRSEDTAVYYCARSGGLPDVWGQGTTVTVSS VL: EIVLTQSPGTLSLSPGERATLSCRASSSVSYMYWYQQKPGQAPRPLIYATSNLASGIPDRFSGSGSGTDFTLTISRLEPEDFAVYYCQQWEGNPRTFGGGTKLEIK
Qualitative Label: yes
--
Binder: A219 (antibody, V domains shown) VH: QVQLVQSGAEVKKPGASVKVSCKASGFDIQDTYMHWVKQRPGQGLEWMGRIDPASGHTKYDPKFQVRVTITRDTSTSTVYLELSSLRSEDTAVYYCARSGGLPDVWGQGTTVTVSS VL: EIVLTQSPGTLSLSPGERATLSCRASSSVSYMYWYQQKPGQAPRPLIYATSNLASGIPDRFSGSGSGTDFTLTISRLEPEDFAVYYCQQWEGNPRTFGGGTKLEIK
Qualitative Label: yes
--
Binder: A147 (antibody, V domains shown) VH: QVQLVQSGAEVKKPGASVKVSCKASGFDIQDTYMHWVKQRPGQGLEWMGRIEPASGHIKYDPKFQGRVTMTRDTSTSTVYMELSSLRSEDTAVYYCARSGGLPDWWGQGTTVTVSS VL: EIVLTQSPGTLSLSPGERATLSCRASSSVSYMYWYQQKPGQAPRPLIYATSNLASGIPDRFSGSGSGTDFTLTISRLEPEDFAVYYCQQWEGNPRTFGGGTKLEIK
Qualitative Label: yes

// switching to the query binder
Record A220 (antibody, V domains shown) VH: QVQLVQSGAEVKKPGASVKVSCKASGFDIQDTYMHWVKQRPGQGLEWMGRIDPASGHTKYDPKFQVRVTMTRDTSTSTAYLELSSLRSEDTAVYYCARSGGLPDVWGQGTTVTVSS VL: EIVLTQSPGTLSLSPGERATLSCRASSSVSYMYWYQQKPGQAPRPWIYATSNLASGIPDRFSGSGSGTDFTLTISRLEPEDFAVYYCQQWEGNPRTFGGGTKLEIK ; criterion: % Inhibition at 10 nM Ig; inhibition of interferon gamma release in human blood no lower than 70%. Met? no
